Molecular target: cdc2/cyclinB (Homo sapiens, UniProt P06493)
Sequence (P06493 whole entry): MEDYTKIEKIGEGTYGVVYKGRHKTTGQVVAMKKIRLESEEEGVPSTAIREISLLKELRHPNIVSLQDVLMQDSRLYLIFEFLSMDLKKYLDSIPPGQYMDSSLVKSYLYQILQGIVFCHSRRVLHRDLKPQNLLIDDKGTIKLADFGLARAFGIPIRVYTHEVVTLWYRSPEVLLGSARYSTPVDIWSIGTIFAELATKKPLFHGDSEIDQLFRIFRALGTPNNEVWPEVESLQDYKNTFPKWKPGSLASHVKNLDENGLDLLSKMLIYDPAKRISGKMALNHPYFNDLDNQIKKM
Sequence (P14635 whole entry, further chain): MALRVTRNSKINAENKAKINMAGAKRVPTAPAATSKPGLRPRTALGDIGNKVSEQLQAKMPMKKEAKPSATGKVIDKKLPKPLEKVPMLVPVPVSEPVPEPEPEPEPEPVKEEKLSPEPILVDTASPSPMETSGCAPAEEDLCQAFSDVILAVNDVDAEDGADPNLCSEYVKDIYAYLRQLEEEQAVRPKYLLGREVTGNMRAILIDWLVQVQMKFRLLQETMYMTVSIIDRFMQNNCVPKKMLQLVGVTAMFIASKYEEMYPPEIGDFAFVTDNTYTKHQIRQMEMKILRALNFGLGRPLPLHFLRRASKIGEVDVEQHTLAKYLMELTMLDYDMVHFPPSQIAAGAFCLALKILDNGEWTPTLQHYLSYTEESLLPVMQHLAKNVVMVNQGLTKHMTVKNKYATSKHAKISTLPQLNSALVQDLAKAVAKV
Assay: Cyclin-Dependent Kinase Assay cdc2/cyclinB
Assay type: biochemical
Conditions: retinoblastoma substrate; read-out: IC50 (µM) cdkl/B
observable: IC50 (µM)

Check out these entries, answers already filled in.
CN1CCN(c2ccc(Nc3ncc4cnc(=O)n(C5CCCC5)c4n3)cc2)CC1 : 7.51
O=C1NCc2cnc(Nc3ccc(N4CCC(O)CC4)cc3)nc2N1C1CCCC1 : 16.8
CN1CCN(c2ccc(Nc3ncc4c(n3)N(C3CCCC3)C(=O)NC4)cc2)CC1 : 11.6

1: O=c1ncc2cnc(Nc3ccc(N4CCCCC4)cc3)nc2n1C1CCCC1
2: O=c1ncc2cnc(Nc3ccc(N4CCC(O)CC4)cc3)nc2n1C1CCCC1
q: I need your help: which of the pair 1 , 2 has higher IC50? Kindly give the label for the entry you pick.
a: 1

###

Biological target: cdc2/cyclinB (Homo sapiens, UniProt P06493)
Assay: Cyclin-Dependent Kinase Assay cdc2/cyclinB
Assay type: biochemical
Listing: IC50 of selected molecules

Check out these entries, answers already filled in.
Cn1c(=O)ncc2cnc(Nc3ccc(-n4cccn4)cc3)nc21 [Example 47] : > 40 µM
CN1CCN(c2ccc(Nc3ncc4cnc(=O)n(C)c4n3)cc2)CC1 [Example 45] : > 40 µM
CN1C(=O)NCc2cnc(Nc3ccc(N4CCC(N(C)C)CC4)cc3)nc21 [Example 30, trifluoroacetic acid] : > 40 µM

q: What is its IC50 for cdc2/cyclinB (Homo sapiens, UniProt P06493)? Entry: CC(C)N1C(=O)NCc2cnc(Nc3ccc(-n4cccn4)cc3)nc21 [Example 25, trifluoroacetic acid]
a: 36.5 µM

q: Now this one: O=c1ncc2cnc(Nc3ccc(-n4cccn4)cc3)nc2n1C1CCCC1 [Example 36]
a: 16.1 µM

###

Biological target: cdk2/cyclinE (Homo sapiens)
Test: Cyclin-Dependent Kinase Assay cdk2/cyclinE
Format: biochemical
Conditions: retinoblastoma substrate; read-out: IC50 (µM) cdk2/E
observable: IC50 (µM)

Check out these entries, answers already filled in.
O=C1NCc2cnc(Nc3ccc(N4CCC(O)CC4)cc3)nc2N1C1CCCC1 : 2.2
CN1CCN(c2ccc(Nc3ncc4c(n3)N(C3CCCC3)C(=O)NC4)cc2)CC1 : 2.12
O=c1ncc2cnc(Nc3ccc(N4CCC(O)CC4)cc3)nc2n1C1CCCC1 : 4.2

P: CN1CCN(c2ccc(Nc3ncc4cnc(=O)n(C5CCCC5)c4n3)cc2)CC1
Q: O=c1ncc2cnc(Nc3ccc(N4CCCCC4)cc3)nc2n1C1CCCC1
q: Of P and Q , whose reported IC50 is numerically smaller? Kindly give the label for the entry you pick.
a: P

###

Target: cdk2/cyclinA (Homo sapiens, UniProt P24941)
Assay: Cyclin-Dependent Kinase Assay cdk2/cyclinA
Assay type: biochemical
Details: retinoblastoma substrate; read-out: IC50 (µM) cdk2/A
observable: IC50 (µM)

CN1CCN(c2ccc(Nc3ncc4cnc(=O)n(C5CCCC5)c4n3)cc2)CC1 : 0.83
O=C1NCc2cnc(Nc3ccc(N4CCC(O)CC4)cc3)nc2N1C1CCCC1 : 0.6
O=c1ncc2cnc(Nc3ccc(N4CCC(O)CC4)cc3)nc2n1C1CCCC1 : 0.98
CN1CCN(c2ccc(Nc3ncc4c(n3)N(C3CCCC3)C(=O)NC4)cc2)CC1 : 0.76
O=c1ncc2cnc(Nc3ccc(N4CCCCC4)cc3)nc2n1C1CCCC1 : 0.77

###

Target: cdk2/cyclinA (Homo sapiens, UniProt P24941)
Assay: Cyclin-Dependent Kinase Assay cdk2/cyclinA
Format: biochemical
Listing: pIC50 of selected compounds
# reply with the number alone; pIC50 is -log10 of concentration in mol/L

Check out these entries, answers already filled in.
O=C1NCc2cnc(Nc3ccc(-n4cccc4)cc3)nc2N1C1CCCC1 : 5.29
CC(C)N1C(=O)NCc2cnc(Nc3ccc(-n4cccn4)cc3)nc21 : 5.64
O=c1ncc2cnc(Nc3ccc(N4CCCC(O)C4)cc3)nc2n1C1CCCC1 (centres unmarked) : 6.00
CC(C)n1c(=O)ncc2cnc(Nc3ccc(N4CCC(N(C)C)CC4)cc3)nc21 : 4.83

# context switch: different compound, same pIC50
q: What is its pIC50 for cdk2/cyclinA (Homo sapiens, UniProt P24941)? Entry: `CC(C)N1C(=O)NCc2cnc(Nc3ccc(N4CCN(C)CC4)cc3)nc21`
a: 5.03

###

Molecular target: FGF-1 (flg) receptor tyrosine kinase (Homo sapiens, UniProt P11362)
Construct: amplify a fragment of DNA that codes for the intracellular tyrosine kinase domain; made in house; host or cells: SF9 insect cells (baculovirus); crude cell lysate used
Sequence (P11362 478-767 limits assumed): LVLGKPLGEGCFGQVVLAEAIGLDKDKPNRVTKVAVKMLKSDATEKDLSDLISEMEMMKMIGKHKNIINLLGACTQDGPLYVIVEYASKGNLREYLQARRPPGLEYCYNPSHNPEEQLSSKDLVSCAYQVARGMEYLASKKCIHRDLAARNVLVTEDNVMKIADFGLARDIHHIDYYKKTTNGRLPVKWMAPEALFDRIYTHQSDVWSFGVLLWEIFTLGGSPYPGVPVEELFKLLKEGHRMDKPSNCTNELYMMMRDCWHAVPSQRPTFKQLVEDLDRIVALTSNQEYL
Test: FGF Receptor Tyrosine Kinase Assay
Type: biochemical
Settings: glutamate-tyrosine co-polymer substrate, 50 µM ATP
observable: IC50 (µM)

Check out these entries, answers already filled in.
O=c1ncc2cnc(Nc3ccc(N4CCCC(O)C4)cc3)nc2n1C1CCCC1 (stereo not drawn) [Example 35] : 3.49
CCN(CC)CCCCNc1ncc2c(n1)N(CC)C(=O)N(c1cc(OC)cc(OC)c1)C2 [Example 53] : 0.06

1: CCN(CC)CCOc1ccc(Nc2ncc3c(n2)N(CC)C(=O)N(c2cc(OC)cc(OC)c2)C3)cc1 [Example 53a]
2: CN1CCN(c2ccc(Nc3ncc4cnc(=O)n(C5CCCC5)c4n3)cc2)CC1 [Example 32]
3: O=C1NCc2cnc(Nc3ccc(N4CCCCC4)cc3)nc2N1C1CCCC1 [Example 10]
q: Ordering: ascending IC50. Answer format: the labels, ordered as requested.
a: 1, 2, 3
(1: 0.02 µM, 2: 0.37 µM, 3: 0.64 µM)

###

Target: cdc2/cyclinB (Homo sapiens, UniProt P06493)
Assay: Cyclin-Dependent Kinase Assay cdc2/cyclinB
Type: biochemical
observable: IC50

Check out these entries, answers already filled in.
O=c1ncc2cnc(Nc3ccc(N4CCC(CCN5CCOCC5)CC4)cc3)nc2n1C1CCCC1 : 24.6 µM
C=CCn1c(=O)c2cnc(Nc3ccc(N4CCN(C)CC4)cc3)nc2n(C(C)C)c1=O : > 40 µM
CC(C)n1c(=O)ncc2cnc(Nc3ccc(-n4cccn4)cc3)nc21 : > 40 µM

# context switch: different compound, same IC50
q: # get_value(readout='IC50', item= `CN(C)C1CCN(c2ccc(Nc3ncc4cnc(=O)n(C)c4n3)cc2)CC1` )
a: > 40 µM

###

Target: cdk2/cyclinA (Homo sapiens)
Test: Cyclin-Dependent Kinase Assay cdk2/cyclinA
Assay type: biochemical
observable: IC50

Check out these entries, answers already filled in.
C=CCn1c(=O)c2cnc(Nc3ccc(N4CCN(C)CC4)cc3)nc2n(C(C)C)c1=O [Example 70] : > 40 µM
CN1CCN(c2ccc(Nc3ncc4c(n3)N(C)C(=O)NC4)cc2)CC1 [Example 28, trifluoroacetic acid] : > 40 µM

# context switch: different compound, same IC50
q: # get_value(readout='IC50', item= CN1C(=O)NCc2cnc(Nc3ccc(-n4cccn4)cc3)nc21 [Example 31, trifluoroacetic acid] )
a: > 40 µM

###

Target: FGF-1 (flg) receptor tyrosine kinase (Homo sapiens, UniProt P11362)
Construct: amplify a fragment of DNA that codes for the intracellular tyrosine kinase domain; made in house; host or cells: SF9 insect cells (baculovirus); crude cell lysate used
Experiment: FGF Receptor Tyrosine Kinase Assay
Type: biochemical
Conditions: glutamate-tyrosine co-polymer substrate, 50 µM ATP
Listing: IC50 of selected compounds
Enter your answer as a number in µM; do not include the unit.

Check out these entries, answers already filled in.
COc1ccc(Nc2ncc3c(n2)N(C2CCCC2)C(=O)NC3)cc1 [Example 9] : 0.36
CN1CCN(c2ccc(Nc3ncc4c(n3)N(C3CCCC3)C(=O)NC4)cc2)CC1 [Example 11] : 0.023
CC(C)n1c(=O)ncc2cnc(Nc3ccc(N4CCN(C)CC4)cc3)nc21 [Example 40] : 1.13
CC(C)n1c(=O)ncc2cnc(Nc3ccc(N4CCC(N(C)C)CC4)cc3)nc21 [Example 41] : 11.7

q: # get_value(readout='IC50', item= CN(C)C1CCN(c2ccc(Nc3ncc4cnc(=O)n(C)c4n3)cc2)CC1 [Example 46] )
a: 22.6

###

Molecular target: cdc2/cyclinB (Homo sapiens, UniProt P06493)
Assay: Cyclin-Dependent Kinase Assay cdc2/cyclinB
Format: biochemical
Listing: IC50 of selected compounds

q: # get_value(readout='IC50', item= CN1C(=O)NCc2cnc(Nc3ccc(N4CCC(O)CC4)cc3)nc21 [Example 29, trifluoroacetic acid] )
a: > 40 µM

q: Now this one: O=C1NCc2cnc(Nc3ccc(N4CCC(CCCO)CC4)cc3)nc2N1C1CCCC1 [Example 20]
a: > 40 µM

q: Now this one: CC(C)n1c(=O)ncc2cnc(Nc3ccc(N4CCC(N(C)C)CC4)cc3)nc21 [Example 41]
a: > 40 µM

q: Now this one: CC(C)N1C(=O)NCc2cnc(Nc3ccc(N4CCC(N(C)C)CC4)cc3)nc21 [Example 24, trifluoroacetic acid]
a: > 40 µM

###

Listing: IC50 of selected molecules
Molecular target: FGF-1 (flg) receptor tyrosine kinase (Homo sapiens)
Construct: amplify a fragment of DNA that codes for the intracellular tyrosine kinase domain; made in house; host or cells: SF9 insect cells (baculovirus); crude cell lysate used
Experiment: FGF Receptor Tyrosine Kinase Assay
Type: biochemical
Conditions: glutamate-tyrosine co-polymer substrate, 50 µM ATP

Check out these entries, answers already filled in.
O=C1NCc2cnc(Nc3ccc(N4CCC(O)CC4)cc3)nc2N1C1CCCC1 [Example 15] : 0.05 to 0.5 µM
CCN(CC)CCOc1ccc(Nc2ncc3c(n2)N(C2CCCC2)C(=O)NC3)cc1C [Example 13] : 0.05 to 0.5 µM
C=CCn1c(=O)c2cnc(Nc3ccc(N4CCN(C)CC4)cc3)nc2n(C(C)C)c1=O [Example 70] : > 50 µM
O=C1NCc2cnc(Nc3ccc(N4CCCCC4CO)cc3)nc2N1C1CCCC1 (centres unmarked) [Example 19] : 0.05 to 0.5 µM

# context switch: different molecule, same IC50
q: # get_value(readout='IC50', item= O=c1ncc2cnc(Nc3ccc(-n4cccn4)cc3)nc2n1C1CCCC1 [Example 36] )
a: > 50 µM
